# Tested on: A498 renal
# experiment: NCI-60 one-dose screen, 48 h (100 = growth as untreated, 0 = no growth, -100 = all killed)
# measurement.setup: 10 µM unless noted
About 83,000 compounds went through this panel and 20% of them were active in at least one assay; those are over-represented in the sample as a whole.
Entries and their growth values follow.

structure.as.smiles	growth, %
C[C@@H]1COC(Nc2ccc3ncnc(Nc4ccc(OCc5nccs5)c(Cl)c4)c3c2)=N1	22.5
C/C(=N\NC(=O)Cn1c(-c2ccc(S(C)(=O)=O)cc2)nc2ccccc21)c1ccc(Cl)cc1	104
CN1CCN(CCCOc2cccc3nc(Nc4ccc(Cl)c(C(F)(F)F)c4)ccc23)CC1	30.8
COc1ccc(Br)cc1NC(=O)Nc1cccc2c1ccn2Cc1ccnc(N)c1	-2.46
CC(C)Nc1cc(-c2c[nH]c(C(=O)N[C@H](CO)c3cccc(Cl)c3)c2)c(Cl)cn1	4.24

* * *

# Test system: BT-549 breast
# experiment: NCI-60 one-dose screen, 48 h (100 = growth as untreated, 0 = no growth, -100 = all killed)
# measurement.setup: 10 µM unless noted
This is part of a sample that, as a whole, favours compounds with a hit. Of some 83,000 tested, about 20% had one in any assay.

compound	assayed.target	growth / %
COCCN1CCN(Cc2ccc(-c3n[nH]c4c3C(=O)c3c(NC(=O)NN5CCOCC5)cccc3-4)cc2)CC1	BT-549 breast	-24.2
COc1ccc2c(c1OC)C(=O)O[C@@H]2[C@H]1c2c(c(C#CC#Cc3ccc(F)c(F)c3)c3c(c2OC)OCO3)CCN1C	BT-549 breast	78.2
O=C(NC1CCNCC1)c1[nH]ncc1NC(=O)c1c(Cl)cccc1Cl	BT-549 breast	7.37
COc1ccc2c(CCc3ccc(Cl)cc3)c3[n+](cc2c1OC)CCc1cc2c(cc1-3)OCO2	BT-549 breast	18.5
Cc1nc2cc(-c3nn(C(C)C)c4ncnc(N)c34)ccc2o1	BT-549 breast	-14.5
N#Cc1ccc(-n2nnc3ccccc32)cc1C#N	BT-549 breast	106
CCN1/C(=C/C=C/c2n(-c3ccccc3)c3ccc(-c4nc5ccccc5s4)cc3[n+]2CC)N(c2ccccc2)c2ccc(-c3nc4ccccc4s3)cc21	BT-549 breast	-5.34
ClCc1ccc(-c2ccc(Cn3cnc4nc(Cl)nc(Cl)c43)cc2)cc1	BT-549 breast	-44.8
CC/C(=C(/c1ccc(Cl)cc1)c1ccc(OCCN2CCCCC2)cc1)c1ccc(Cl)cc1	BT-549 breast	85.9
COc1ccc(/C(C)=C(\c2ccc(Cl)cc2)c2ccc(OCCN3CCCCCC3)cc2)cc1	BT-549 breast	63.5
CCCCn1c(C)nc2cc(Nc3nc(N4CCCCC4)nc4nc[nH]c34)ccc21	BT-549 breast	18
CC(C)OP(=O)(CCC(=O)c1c[nH]c2ccccc12)OC(C)C	BT-549 breast	117
Cn1ccnc1C(=O)/C=C/c1ccc(CC(=O)Nc2ccc(C(F)(F)F)cc2)cc1	BT-549 breast	3.71
Cc1cc(N(CCNc2ccnc3cc(Cl)ccc23)Cc2cccs2)nc(Cl)n1	BT-549 breast	-55.4
COC(=O)[C@H](Cc1ccc(O)cc1)NC(=O)[C@@H](OC)[C@@H]1Cc2cc3cc(OC4CC(OC5CC(O)C(O)C(C)O5)C(O)C(C)O4)c(C)c(O)c3c(O)c2C(=O)[C@H]1OC1CC(OC2CC(OC3CC(C)(O)C(O)C(C)O3)C(O)C(C)O2)C(O)C(C)O1 (some centres undefined)	BT-549 breast	-36.9
Cc1nc(N)sc1-c1ccnc(Nc2ccc(N3CCOCC3)cc2)n1	BT-549 breast	17.3
CCOC(=O)C1=C(C)NC(=O)NC1c1cc(=O)oc2ccc(C)cc12 (centres undefined)	BT-549 breast	111
CN1CCN(c2ccc(C(=O)Nc3n[nH]c4ccc(Cc5cc(F)cc(F)c5)cc34)c(NC3CCOCC3)c2)CC1	BT-549 breast	10.6
CN1CCC(CNc2ccc3ncc(-c4cccc(OC(F)(F)F)c4)n3n2)CC1	BT-549 breast	-0.185
CO/C=C/C(=O)c1cc2cnc3c(=N)cc(NC(=O)C(C)C)c([nH]1)c23	BT-549 breast	-58.9
C/C=C/C=N/NC(=S)Nc1ccccc1	BT-549 breast	96.5
Cc1cc(Nc2cc(N3CCN(C)CC3)nc(/C=C/c3ccccc3)n2)n[nH]1	BT-549 breast	8.9
CO[C@H]1C[C@@H]2CC[C@@H](C)[C@@](O)(O2)C(=O)C(=O)N2CCCC[C@H]2C(=O)O[C@H]([C@H](C)C[C@@H]2CC[C@@H](OC(=O)C(C)(CO)CO)[C@H](OC)C2)CC(=O)[C@H](C)/C=C(\C)[C@@H](O)[C@@H](OC)C(=O)[C@H](C)C[C@H](C)\C=C/C=C/C=C/1C	BT-549 breast	0.892
COc1ccc2c(CCCC(c3ccccc3)c3ccccc3)c3[n+](cc2c1OC)CCc1cc2c(cc1-3)OCO2	BT-549 breast	-65.6
COc1cc2cc(NCc3ccc(F)cc3)nc(C)c2cc1OC	BT-549 breast	29
COc1cc(NC2CCC(=O)N2c2ccc(Cl)cc2Cl)cc(OC)c1OC (centres undefined)	BT-549 breast	109
CCc1cnn2c(NCc3ccc[n+]([O-])c3)cc(N3CCCC[C@H]3CCO)nc12	BT-549 breast	-15.7
COC(=O)c1ccc2c(C(=Nc3ccc(N(C)C(=O)CN4CCN(C)CC4)cc3)c3ccccc3)c(O)[nH]c2c1	BT-549 breast	55.8
CCN1CCN(CCCN(C[C@H]2Cc3ccccc3CN2)[C@H]2CCCc3cccnc32)CC1	BT-549 breast	79.7
COC(=O)[C@@H](OC)[C@@H]1Cc2cc3cc(OC4CC(OC5CC(O)C(O)C(C)O5)C(O)C(C)O4)c(C)c(O)c3c(O)c2C(=O)[C@H]1OC1CC(OC2CC(OC3CC(C)(O)C(O)C(C)O3)C(O)C(C)O2)C(O)C(C)O1 (some centres undefined)	BT-549 breast	-32.9
COc1cc2ncnc3c2cc1OCCCCCN(C)Cc1ccc(Br)cc1N3	BT-549 breast	60.6
CCc1nc2cc(/C=C/C(=O)NO)ccc2c(=O)n1CCc1ccc(OC)cc1	BT-549 breast	55.1
O=c1[nH]c(N2CCOCC2)nc2scc(-c3ccccc3)c12	BT-549 breast	92.4
CCN1CCN(c2nc(C)cc(N(CCCNc3ccnc4cc(Cl)ccc34)Cc3ccc4c(c3)OCO4)n2)CC1	BT-549 breast	-53.1

* * *

# System: MDA-MB-231 breast
# experiment: NCI-60 one-dose screen, 48 h (100 = growth as untreated, 0 = no growth, -100 = all killed)
# measurement.setup: 10 µM unless noted
# Description: Cells are grown in 96 well plates and exposed to the test compound for 48 hours. Compounds are tested at a single concentration, which is 10^-5 M for most compounds. The reported endpoint is percent growth (GI% or GIPRCNT), where numbers from 0 - 100% represent growth inhibition, and numbers from -100% - 0 represent cell death. For example, a value of 40 represents 60% growth inhibition. A value of 0 means no net growth occurred over the course of the experiment. […]
This is part of a sample that, as a whole, favours compounds with a hit. Of some 83,000 tested, about 20% had one in any assay.
As shown below, each of these molecules has a reported growth value.
readout.type: growth (%)

molecule	readout.type	unit.of.measure	observed
CCN1CCN(c2nc(C)cc(N(CCCNc3ccnc4cc(Cl)ccc34)Cc3ccc4c(c3)OCO4)n2)CC1	growth	%	-32.8
O=C(Nc1cn[nH]c1-c1nc2ccc(CN3CCOCC3)cc2[nH]1)NC1CC1	growth	%	1.37
CN1CCC(CNc2ccc3ncc(-c4cccc(OC(F)(F)F)c4)n3n2)CC1	growth	%	-80.3
CO[C@H]1C[C@@H]2CC[C@@H](C)[C@@](O)(O2)C(=O)C(=O)N2CCCC[C@H]2C(=O)O[C@H]([C@H](C)C[C@@H]2CC[C@@H](OC(=O)C(C)(CO)CO)[C@H](OC)C2)CC(=O)[C@H](C)/C=C(\C)[C@@H](O)[C@@H](OC)C(=O)[C@H](C)C[C@H](C)\C=C/C=C/C=C/1C	growth	%	24.8
O=C1NC(=O)C(c2cnc3ccccn23)=C1c1cn2c3c(cc(F)cc13)CN(C(=O)N1CCCCC1)CC2	growth	%	70.2
CN1CC[C@H](c2c(O)cc(O)c3c(=O)cc(-c4ccccc4Cl)oc23)[C@H](O)C1	growth	%	1.35
CCN(CC)Cc1cc(Nc2cc(C(F)(F)F)c(C#N)c3nc4ccccc4n23)ccc1O	growth	%	-8.6
COC(=O)[C@@H](NC(=O)[C@@H](OC)[C@@H]1Cc2cc3cc(OC4CC(OC5CC(O)C(O)C(C)O5)C(O)C(C)O4)c(C)c(O)c3c(O)c2C(=O)[C@H]1OC1CC(OC2CC(OC3CC(C)(O)C(O)C(C)O3)C(O)C(C)O2)C(O)C(C)O1)C(C)C (stereo partly drawn)	growth	%	10.9
